The values you see were collected from paper PMC11638965.

# Target System: BRD2 (Homo sapiens)
# Construct: HiBiT, is appended to the N-terminus of endogenous BRD2, BRD3, and BRD4; endogenous in cells
# Sequence (P25440 whole entry): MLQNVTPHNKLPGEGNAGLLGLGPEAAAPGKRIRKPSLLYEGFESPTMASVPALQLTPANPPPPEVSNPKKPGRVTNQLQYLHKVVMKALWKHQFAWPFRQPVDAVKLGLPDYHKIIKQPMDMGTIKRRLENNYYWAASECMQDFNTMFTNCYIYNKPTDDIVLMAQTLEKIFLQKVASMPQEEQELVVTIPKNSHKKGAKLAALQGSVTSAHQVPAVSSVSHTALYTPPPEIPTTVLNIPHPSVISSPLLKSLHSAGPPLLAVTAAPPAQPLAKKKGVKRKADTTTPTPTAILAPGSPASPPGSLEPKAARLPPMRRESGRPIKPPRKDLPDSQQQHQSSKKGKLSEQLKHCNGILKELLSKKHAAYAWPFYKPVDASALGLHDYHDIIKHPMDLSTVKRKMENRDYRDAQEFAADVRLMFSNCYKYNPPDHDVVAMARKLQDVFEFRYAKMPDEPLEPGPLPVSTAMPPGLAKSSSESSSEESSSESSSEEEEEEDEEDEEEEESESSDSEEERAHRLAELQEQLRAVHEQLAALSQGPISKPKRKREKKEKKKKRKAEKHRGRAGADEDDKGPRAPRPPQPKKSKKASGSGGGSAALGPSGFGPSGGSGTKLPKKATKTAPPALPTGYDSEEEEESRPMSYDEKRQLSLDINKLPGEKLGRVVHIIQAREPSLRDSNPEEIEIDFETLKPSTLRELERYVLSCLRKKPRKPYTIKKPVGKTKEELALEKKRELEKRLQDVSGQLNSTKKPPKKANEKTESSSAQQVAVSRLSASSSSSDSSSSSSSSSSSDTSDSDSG
# Assay Text: Live cell kinetic HiBiT degradation assay, HiBiT-BRD2 HEK293 cells
# Assay type: cell-based
# Reported Conditions: HiBiT-BRD2 CRISPR knock-in HEK293 cells, live cell kinetic degradation, 24 h; read-out: Dmax 50 BRD2
# Description: HEK293 HiBiT-BRD2 (LgBiT stable), HEK293 HiBiT-BRD3 (LgBiT stable), and HEK293 HiBiT-BRD4 (LgBiT stable) were created using CRISPR/Cas9 to insert at HiBiT tag at the N-terminal genomic loci of BRD2, BRD3, or BRD4 in a cell line stably expressing LgBiT protein as described previously.[23] […]
Measured Parameter: log10(DC50) (log10 of the value in nM)

1) Cc1ncsc1-c1ccc(CNC(=O)[C@@H]2C[C@@H](O)CN2C(=O)[C@@H](NC(=O)COCC(C)(COCCOCCOCCNc2cccc3c2C(=O)N(C2CCC(=O)NC2=O)C3=O)COCCOCCOC(=O)C[C@@H]2N=C(c3ccc(Cl)cc3)c3c(sc(C)c3C)-n3c(C)nnc32)C(C)(C)C)cc1 (mixture of isomers) [AB3064 (25)]; 1.87
2) Cc1ncsc1-c1ccc(CNC(=O)[C@@H]2C[C@@H](O)CN2C(=O)[C@@H](NC(=O)COCC(C)(COCCOCCNc2cc3c(cc2F)C(=O)N(C2CCC(=O)NC2=O)C3=O)COCCOCCOCCOC(=O)C[C@@H]2N=C(c3ccc(Cl)cc3)c3c(sc(C)c3C)-n3c(C)nnc32)C(C)(C)C)cc1 (mixture of isomers) [AB3126 (29)]; 1.26
3) Cc1ncsc1-c1ccc(CNC(=O)[C@@H]2C[C@@H](O)CN2C(=O)[C@@H](NC(=O)COCC(C)(COCCOCCOCCOC(=O)C[C@@H]2N=C(c3ccc(Cl)cc3)c3c(sc(C)c3C)-n3c(C)nnc32)COCCOCCOCCN2CCN(c3cc4c(cc3F)C(=O)N(C3CCC(=O)NC3=O)C4=O)CC2)C(C)(C)C)cc1 (mixture of isomers) [AB3030 (32)]; 1.40
4) Cc1ncsc1-c1ccc(CNC(=O)[C@@H]2C[C@@H](O)CN2C(=O)[C@@H](NC(=O)COCC(C)(COCCOCCNc2cc3c(cc2F)C(=O)N(C2CCC(=O)NC2=O)C3=O)COCCOCCOC(=O)C[C@@H]2N=C(c3ccc(Cl)cc3)c3c(sc(C)c3C)-n3c(C)nnc32)C(C)(C)C)cc1 (mixture of isomers) [AB3125 (30)]; 1.49
5) Cc1ncsc1-c1ccc([C@H](C)NC(=O)[C@@H]2C[C@@H](O)CN2C(=O)[C@@H](NC(=O)COCC(C)(COCCOCCOCCNc2cccc3c2C(=O)N(C2CCC(=O)NC2=O)C3=O)COCCOCCOCCOC(=O)C[C@@H]2N=C(c3ccc(Cl)cc3)c3c(sc(C)c3C)-n3c(C)nnc32)C(C)(C)C)cc1 (mixture of isomers) [AB3066 (24)]; 0.86
6) Cc1ncsc1-c1ccc(CNC(=O)[C@@H]2C[C@@H](O)CN2C(=O)[C@@H](NC(=O)COCC(C)(COCCOCCOCCNc2cc3c(cc2F)C(=O)N(C2CCC(=O)NC2=O)C3=O)COCCOCCOC(=O)C[C@@H]2N=C(c3ccc(Cl)cc3)c3c(sc(C)c3C)-n3c(C)nnc32)C(C)(C)C)cc1 (mixture of isomers) [AB3065 (28)]; 1.36
7) Cc1ncsc1-c1ccc([C@H](C)NC(=O)[C@@H]2C[C@@H](O)CN2C(=O)[C@@H](NC(=O)COCC(C)(COCCOCCOCCNc2cc3c(cc2F)C(=O)N(C2CCC(=O)NC2=O)C3=O)COCCOCCOCCOC(=O)C[C@@H]2N=C(c3ccc(Cl)cc3)c3c(sc(C)c3C)-n3c(C)nnc32)C(C)(C)C)cc1 (mixture of isomers) [AB3067 (27)]; 0.30
8) Cc1ncsc1-c1ccc(CNC(=O)[C@@H]2C[C@@H](O)CN2C(=O)[C@@H](NC(=O)COCC(C)(COCCOCCNC(=O)C[C@@H]2N=C(c3ccc(Cl)cc3)c3c(sc(C)c3C)-n3c(C)nnc32)COCCOCCNc2cccc3c2C(=O)N(C2CCC(=O)NC2=O)C3=O)C(C)(C)C)cc1 (some centres unmarked) [MN675 (2)]; 2.19
